- Tested on: A549
- PROTOCOL_DETAILS: Antiproliferative activity against human A549 cells at 5 uM incubated for 48 hrs by MTT assay relative to control
- Format: functional
Answer each item with its documented inhibition at 5 µM.
Answers are plain numbers, in %.

O=C(c1ccccc1)c1nc(Nc2ccc(OC(F)(F)F)cc2)c2cc(F)ccc2n1 42.2
COc1ccc(Nc2nc(C(=O)c3cccc(OC)c3)nc3ccccc23)cc1 44.3
COc1cccc(C(F)(F)c2nc(N(C)c3ccc(OC)c(OC)c3)c3ccccc3n2)c1 53.2
CC(C)(CN1C(=O)C(Cl)=C(Cl)C1=O)CN1C(=O)C(Cl)=C(Cl)C1=O 7.3
COC(=O)c1ccc(N(C)c2nc(C(=O)c3ccc(F)cc3)nc3ccccc23)cc1OC 21.9
CCOC(=O)c1c(C)nc(-c2ccc(N(C)c3nc(C(=O)c4ccccc4)nc4ccc(F)cc34)cc2)n1C 1.8
COC(=O)c1ccc(Nc2nc(C(=O)c3ccccc3)nc3ccc(F)cc23)cc1 17.7
Cc1ccc(Nc2nc(C(=O)c3ccc(F)cc3)nc3ccccc23)c(C(=O)O)c1 29.9
COc1ccc(Nc2nc([C@@H](N)C(C)C)nc3ccccc23)cc1 3.4
CC(C)[C@H](N)c1nc(Nc2ccc(OC(F)(F)F)cc2)c2ccccc2n1 11.4

The following compounds each have a reported value; give each one's inhibition at 5 µM.
1. COC(=O)c1ccc(Nc2nc(C(=O)c3ccc(F)cc3)nc3ccccc23)cc1
2. COc1cc(N(C)c2nc(C(=O)c3ccc(F)cc3)nc3ccccc23)ccc1C(=O)O
3. COc1ccc(N(C)c2nc(C(=O)c3ccccc3)nc3ccc(F)cc23)cc1
4. COC(=O)c1ccc(Nc2nc(C(=O)c3cccc(OC)c3)nc3ccccc23)cc1OC
5. COc1cccc(C(=O)c2nc(N(C)c3ccc(OC)c(OC)c3)c3ccccc3n2)c1
6. O=C(c1ccccc1)c1nc(Nc2ccc(N3CCOCC3)cc2)c2cc(F)ccc2n1
7. COc1ccc(N(C)c2nc([C@@H](N)C(C)C)nc3ccccc23)cc1

1. 35.7
2. 5.1
3. 25
4. 40.1
5. 45.4
6. 39.3
7. 72.6

The following compounds each have a reported value; give each one's inhibition at 5 µM.
1. CN(c1ccc(OC(F)(F)F)cc1)c1nc(C(=O)c2ccccc2)nc2ccc(F)cc12
2. COC(=O)c1ccc(N(C)c2nc(C(=O)c3ccccc3)nc3ccc(F)cc23)cc1
3. COc1ccc(Nc2nc(C(=O)c3ccccc3)nc3ccc(F)cc23)cc1

[18.4, 46.1, 2.9]

----------
- Tested on: PC-3
- PROTOCOL_DETAILS: Antiproliferative activity against human PC-3 cells at 5 uM incubated for 48 hrs by MTT assay relative to control
- Type: functional
Answer each item with its documented inhibition at 5 µM.
The answer consists of two parts: a number and, after it, its unit.

Please review the entries below; each comes with its answer.
CN(c1ccc(N2CCOCC2)cc1)c1nc(C(=O)c2ccccc2)nc2ccc(F)cc12 35.4%
COc1cccc(C(=O)c2nc(Nc3ccc(OC)c(OC)c3)c3ccccc3n2)c1 -10.2%

The following compounds each have a reported value; give each one's inhibition at 5 µM.
1. CCOC(=O)c1c(C)nc(-c2ccc(N(C)c3nc(C(=O)c4ccccc4)nc4ccc(F)cc34)cc2)n1C
2. COC(=O)c1ccc(Nc2nc(C(=O)c3ccccc3)nc3ccc(F)cc23)cc1
3. COc1cccc(C(F)(F)c2nc(N(C)c3ccc(OC)c(OC)c3)c3ccccc3n2)c1
4. COc1ccc(Nc2nc(C(=O)c3cccc(OC)c3)nc3ccccc23)cc1

["1%", "29.3%", "62.7%", "46.5%"]

The following compounds each have a reported value; give each one's inhibition at 5 µM.
1. CC(C)[C@H](N)c1nc(Nc2ccc(OC(F)(F)F)cc2)c2ccccc2n1
2. COc1cc(N2CCNCC2)ccc1Nc1nc(C(=O)c2ccc(F)cc2)nc2ccccc12
3. O=C(c1ccc(F)cc1)c1nc(Nc2ccc(N3CCNCC3)c(F)c2)c2ccccc2n1
4. CC(C)(CN1C(=O)C(Cl)=C(Cl)C1=O)CN1C(=O)C(Cl)=C(Cl)C1=O
5. COC(=O)c1ccc(N(C)c2nc(C(=O)c3ccc(F)cc3)nc3ccccc23)cc1OC

1: 13.3%; 2: 9%; 3: -9.6%; 4: 51.1%; 5: 43.6%

The following compounds each have a reported value; give each one's inhibition at 5 µM.
1. CCOC(=O)c1[nH]c(-c2ccc(Nc3nc(C(=O)c4ccccc4)nc4ccc(F)cc34)cc2)nc1C
2. COc1ccc(Nc2nc([C@@H](N)C(C)C)nc3ccccc23)cc1
3. O=C(c1ccccc1)c1nc(Nc2ccc(OC(F)(F)F)cc2)c2cc(F)ccc2n1

["44.5%", "-4.8%", "47.6%"]

----------
- System: A549
- PROTOCOL_DETAILS: Antiproliferative activity against human A549 cells incubated for 48 hrs by MTT assay
- Type: functional, cell-based
- STUDY_CONDITIONS: A549, 48 h
pIC50: −log10 of the molar value.
Answer each item with its documented pIC50.

Please review the entries below; each comes with its answer.
CCOC(=O)c1[nH]c(-c2ccc(Nc3nc(C(=O)c4ccccc4)nc4ccc(F)cc34)cc2)nc1C < 5.00
COc1cccc(C(F)(F)c2nc(N(C)c3ccc(OC)c(OC)c3)c3ccccc3n2)c1 < 5.00
CC(C)(CN1C(=O)C(Cl)=C(Cl)C1=O)CN1C(=O)C(Cl)=C(Cl)C1=O 5.47
COc1ccc(N(C)c2nc([C@@H](N)C(C)C)nc3ccccc23)cc1 < 5.00
COc1ccc(N(C)c2nc(C(=O)c3cccc(OC)c3)nc3ccccc23)cc1 < 5.00

The following molecules each have a reported value; give each one's pIC50.
1. COc1ccc(N(C)c2nc(C(F)(F)c3cccc(OC)c3)nc3ccccc23)cc1
2. COc1cccc2c1C(=O)c1c(O)c3c(c(O)c1C2=O)C[C@@](O)(C(=O)CO)C[C@@H]3O[C@H]1C[C@H](N)[C@H](O)[C@H](C)O1

["< 5.00", 5.36]

----------
- PROTOCOL_DETAILS: Antiproliferative activity against HEK293T cells at 5 uM incubated for 48 hrs by MTT assay relative to control
- Format: toxicity, cell-based, HEK-293T
- STUDY_CONDITIONS: human
Entry flag: TRUE if inhibition at 48 h, 5 µM reaches 6%; FALSE if it does not.

Past entries and their recorded results:
COc1ccc(N(C)c2nc([C@@H](N)C(C)C)nc3ccccc23)cc1 TRUE
COc1cccc(C(=O)c2nc(Nc3ccc(OC)c(OC)c3)c3ccccc3n2)c1 FALSE
COc1cccc(C(F)(F)c2nc(N(C)c3ccc(OC)c(OC)c3)c3ccccc3n2)c1 TRUE

Determine whether this compound has inhibition at 48 h, 5 µM no lower than 6%: COc1ccc(Nc2nc([C@@H](N)C(C)C)nc3ccccc23)cc1
TRUE

----------
- Test system: PC-3
- PROTOCOL_DETAILS: Antiproliferative activity against human PC-3 overexpressing WRN cells incubated for 48 hrs by MTT assay
- Assay type: functional
Answer each item with its documented IC20.
One number for each entry, in µM.

COc1ccc(N(C)c2nc(C(=O)c3cccc(OC)c3)nc3ccccc23)cc1 1.07
COc1ccc(N(C)c2nc(C(F)(F)c3cccc(OC)c3)nc3ccccc23)cc1 0.144
COc1ccc(N(C)c2nc([C@@H](N)C(C)C)nc3ccccc23)cc1 1.11

The following compounds each have a reported value; give each one's IC20.
1. COc1cccc(C(F)(F)c2nc(N(C)c3ccc(OC)c(OC)c3)c3ccccc3n2)c1
2. CCOC(=O)c1[nH]c(-c2ccc(Nc3nc(C(=O)c4ccccc4)nc4ccc(F)cc34)cc2)nc1C

[0.123, 6.6]

----------
- Tested on: PC-3
- PROTOCOL_DETAILS: Antiproliferative activity against human PC-3 cells at 5 uM incubated for 48 hrs by MTT assay relative to control
- Assay type: functional
Answer each item with its documented inhibition at 5 µM.
One number for each entry, in %.

Please review the entries below; each comes with its answer.
CN(c1ccc(OC(F)(F)F)cc1)c1nc(C(=O)c2ccccc2)nc2ccc(F)cc12 10.4
COC(=O)c1ccc(Nc2nc(C(=O)c3cccc(OC)c3)nc3ccccc23)cc1OC 48.3
COc1cc(N2CCNCC2)ccc1N(C)c1nc(C(=O)c2ccc(F)cc2)nc2ccccc12 17.3
COC(=O)c1ccc(N(C)c2nc(C(=O)c3ccccc3)nc3ccc(F)cc23)cc1 39
O=C(c1ccccc1)c1nc(Nc2ccc(N3CCOCC3)cc2)c2cc(F)ccc2n1 3.1
CC(C)[C@H](N)c1nc(Nc2ccc(N3CCOCC3)cc2)c2ccccc2n1 2.1

The following compounds each have a reported value; give each one's inhibition at 5 µM.
1. COc1ccc(N(C)c2nc(C(=O)c3cccc(OC)c3)nc3ccccc23)cc1
2. C=CC(=O)Nc1cccc(Nc2nc(C(=O)c3ccccc3)nc3ccc(F)cc23)c1
3. COc1ccc(N(C)c2nc([C@@H](N)C(C)C)nc3ccccc23)cc1
4. COc1cccc(C(=O)c2nc(N(C)c3ccc(OC)c(OC)c3)c3ccccc3n2)c1

58.1
9.6
51.9
25.3

The following compounds each have a reported value; give each one's inhibition at 5 µM.
1. Cc1ccc(Nc2nc(C(=O)c3ccc(F)cc3)nc3ccccc23)c(C(=O)O)c1
2. COc1cccc2c1C(=O)c1c(O)c3c(c(O)c1C2=O)C[C@@](O)(C(=O)CO)C[C@@H]3O[C@H]1C[C@H](N)[C@H](O)[C@H](C)O1
3. COc1cc(N(C)c2nc(C(=O)c3ccc(F)cc3)nc3ccccc23)ccc1C(=O)O
4. CC(C)[C@H](N)c1nc(N(C)c2ccc(OC(F)(F)F)cc2)c2ccccc2n1

-4.2
80.1
-8.9
7

The following compounds each have a reported value; give each one's inhibition at 5 µM.
1. COc1ccc(Nc2nc(C(=O)c3ccccc3)nc3ccc(F)cc23)cc1
2. COc1ccc(N(C)c2nc(C(=O)c3ccccc3)nc3ccc(F)cc23)cc1
3. COc1ccc(N(C)c2nc(C(F)(F)c3cccc(OC)c3)nc3ccccc23)cc1
4. COC(=O)c1ccc(Nc2nc(C(=O)c3ccc(F)cc3)nc3ccccc23)cc1OC
5. COC(=O)c1ccc(Nc2nc(C(=O)c3ccc(F)cc3)nc3ccccc23)cc1

[3.4, 40.9, 57.6, -5.7, 19]

Hey, just so you know, these numbers are from ChEMBL document CHEMBL5550093.
